Data provenance: patent US20250296971A1

Target: biotinylated extracellular domain of the human GIP receptor (bioGIPR) (human) (UniProt P48546)
Sequence (P48546 24-138 limits assumed): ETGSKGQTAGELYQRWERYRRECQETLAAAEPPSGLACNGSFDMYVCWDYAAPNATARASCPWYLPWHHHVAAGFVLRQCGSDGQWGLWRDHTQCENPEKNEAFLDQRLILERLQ
Test: SPR single cycle kinetics, bioGIPR captured on chip; category B: pKD 8.1-9.0
*1 amine or outer side, *2 acyl side, *3 side chain or, on linkers, in order; H or OH if unused. Where no end group is shown, it is not given here. [ ]: non-standard residue; d: D form. The star is where a group is joined. Ttds = 1,13-diamino-4,7,10-trioxatridecan-succinamic acid, NCCCOCCOCCOCCCNC(=O)CCC(=O)*; DOTA = O=C(O)CN1CCN(CC(=O)O)CCN(CC(=O)*)CCN(CC(=O)O)CC1; Trp(5-Cl) = N[C@@H](Cc1c[nH]c2ccc(Cl)cc12)C(=O)O; Ethylenediamine = C(CN[*:2])N[*:1]; 3CbBn = 3-carboxybenzyl; Aib = CC(C)(N)C(=O)O
Field: pKD. Provide a value for each of the binders that follow.

binder | pKD
SWXXXXCXLIC (AGLU-Glutar-APAc; 5Clw; Tap(AGLU-Glutar); Hse; D-leu; Apc(DOTA); 2Lut bridge Cys-Cys; APAc; D-glu(AGLU); C-term NH2) | 8.1 to 9 pkd

q: For {DOTA-Ttds}-DW[Trp(5-Cl)]PE[dL]C[Aib]LI[Ethylenediamine] (bridge (positions not given here) via 3CbBn; not fully specified (bridges); printed as DOTA-Ttds-Asp-Trp-5Clw-Pro-Glu-leu-[Cys(3CbBn)-Aib-Leu-Ile-en]) [DOTA-Ttds-Asp-Trp-5Clw-Pro-Glu-leu-[Cys(3CbBn)-Aib-Leu-Ile-en]] , what is its reported pKD?
a: 8.1 to 9 pkd
